The reported measurements were obtained from paper PMC5363571.

Kindly state inhibition at 50 µM for each of the entries shown.
target: USP7 (Homo sapiens, UniProt Q93009); experiment: biochemical; parameters: Ub-AMC hydrolysis by recombinant USP7 (20 nM), 30 min pre-incubation, fluorescence read-out; settings: read-out: % Inhibition at 50 μM
Sequence (Q93009 whole entry): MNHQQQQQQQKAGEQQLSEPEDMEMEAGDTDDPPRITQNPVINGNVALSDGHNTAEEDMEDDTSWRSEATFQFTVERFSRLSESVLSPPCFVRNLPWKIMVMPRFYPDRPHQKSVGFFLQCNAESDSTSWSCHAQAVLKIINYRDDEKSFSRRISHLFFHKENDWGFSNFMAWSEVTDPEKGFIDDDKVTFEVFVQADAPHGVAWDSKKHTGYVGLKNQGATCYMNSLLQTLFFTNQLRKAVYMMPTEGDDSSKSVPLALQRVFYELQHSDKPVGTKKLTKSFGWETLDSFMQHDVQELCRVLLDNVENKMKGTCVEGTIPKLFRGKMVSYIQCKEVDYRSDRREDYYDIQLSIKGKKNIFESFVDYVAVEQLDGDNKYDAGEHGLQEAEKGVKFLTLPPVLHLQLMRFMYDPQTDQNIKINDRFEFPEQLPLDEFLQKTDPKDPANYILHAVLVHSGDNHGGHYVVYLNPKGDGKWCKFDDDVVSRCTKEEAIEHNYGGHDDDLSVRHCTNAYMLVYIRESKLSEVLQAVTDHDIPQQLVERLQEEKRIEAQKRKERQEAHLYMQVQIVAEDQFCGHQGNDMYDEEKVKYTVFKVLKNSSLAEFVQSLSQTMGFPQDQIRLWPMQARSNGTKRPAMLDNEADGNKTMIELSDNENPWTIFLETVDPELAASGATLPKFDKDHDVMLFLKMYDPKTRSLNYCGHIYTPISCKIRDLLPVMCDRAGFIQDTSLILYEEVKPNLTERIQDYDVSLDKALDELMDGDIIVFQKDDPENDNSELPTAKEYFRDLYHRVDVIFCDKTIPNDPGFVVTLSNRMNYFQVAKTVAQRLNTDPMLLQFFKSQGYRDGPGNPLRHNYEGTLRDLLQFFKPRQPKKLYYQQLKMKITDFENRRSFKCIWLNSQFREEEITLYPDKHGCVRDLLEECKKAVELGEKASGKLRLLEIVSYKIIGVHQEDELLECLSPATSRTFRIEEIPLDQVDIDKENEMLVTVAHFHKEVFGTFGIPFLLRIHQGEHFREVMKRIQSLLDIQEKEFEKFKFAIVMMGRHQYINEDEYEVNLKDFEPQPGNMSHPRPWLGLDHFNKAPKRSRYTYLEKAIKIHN
Structures can show the parent of a compound that is named as a salt.

# annotated cases, reported inhibition at 50 µM shown
COC(=O)C1=C(C)NC(C)=C(C(=O)OCCN(C)Cc2ccccc2)C1c1cccc([N+](=O)[O-])c1 (stereo not drawn) [Nicardipine]    < 5%
O=c1[nH]c2ccccc2n1C1CCN(CCCC(c2ccc(F)cc2)c2ccc(F)cc2)CC1 [Pimozide]    < 5%
CC(C)(C)NCC(O)c1ccc(O)c(CO)c1 (stereo not drawn) [Salbutamol sulfate]    < 5%
COc1cc(NC(C)CCCN)c2ncccc2c1 (stereo not drawn) [Primaquine phosphate]    < 5%
COc1ccc(C(=O)c2c(C)n(CCN3CCOCC3)c3ccccc23)cc1 [Pravadoline]    < 5%

// for each molecule below, give its inhibition at 50 µM
1. Cc1scc2c1N(C(=O)CN1CCN(C)CC1)c1ccccc1NC2=O [Telenzepine 2HCl]
2. COC(=O)C1=C(C)NC(C)=C(C(=O)OCCCN2CCC(c3ccccc3)(c3ccccc3)CC2)[C@H]1c1cccc([N+](=O)[O-])c1 [Niguldipine HCl]
3. O=C1NC(=O)C(c2ccccc2)(c2ccccc2)N1 [Phenytoin]
4. Cc1ccc(C(=O)c2cc(O)c(O)c([N+](=O)[O-])c2)cc1 [Tolcapone]

Outgoing:
["< 5%", "< 5%", "< 5%", "28.6%"]

----------
molecular target: USP7 (Homo sapiens, UniProt Q93009); assay: biochemical; set-up: Ub-AMC hydrolysis by recombinant USP7 (20 nM), 30 min pre-incubation, fluorescence read-out; settings: read-out: % Inhibition at 50 μM
Where a name gives a salt, the structure may show the parent alone.
measure: inhibition at 50 µM

# annotated cases, reported inhibition at 50 µM shown
Cc1ncc([N+](=O)[O-])n1CCO    < 5%
COc1ccc2c(c1)c(CC(=O)OCC(=O)O)c(C)n2C(=O)c1ccc(Cl)cc1    19.8%
OCCOCCN1CCN(C2=Nc3ccccc3Sc3ccccc32)CC1 [Quetiapine fumarate]    < 5%

// for each compound below, give its inhibition at 50 µM
1. C[C@]12CC[C@H](O)CC1=CC[C@@H]1[C@@H]2CC[C@]2(C)C(=O)CC[C@@H]12 [Dehydroepiandrosterone]
2. Cc1oncc1C(=O)Nc1ccc(C(F)(F)F)cc1 [Leflunomide]
3. Clc1ccc(Nc2nnc(Cc3ccncc3)c3ccccc23)cc1
4. CN(C)CCOC(c1ccccc1)c1ccccc1 [Diphenhydramine HCl]
5. COc1ccc(CN(CCN(C)C)c2ccccn2)cc1 [Mepyramine maleate]
6. c1ccc2c(CC3=NCCN3)cccc2c1 [Naphazoline HCl]

Outgoing:
< 5%
< 5%
< 5%
< 5%
< 5%
< 5%

// for each compound below, give its inhibition at 50 µM
1. COc1cccc2c1C(=O)c1c(O)c3c(c(O)c1C2=O)C[C@@](O)(C(=O)CO)C[C@@H]3O[C@H]1C[C@H](N)[C@H](O)[C@H](C)O1 [Doxorubicin HCl]
2. O=C(O)/C=C/c1ccc(Cn2ccnc2)cc1
3. CN1CCCCC1CCN1c2ccccc2Sc2ccc([S+](C)[O-])cc21 (centres unmarked) [Mesoridazine besylate]

Outgoing:
< 5%
< 5%
16.5%

// for each compound below, give its inhibition at 50 µM
1. CC(=O)O[C@]1(C(C)=O)CC[C@H]2[C@@H]3C[C@H](C)C4=CC(=O)CC[C@]4(C)[C@H]3CC[C@@]21C [Medroxyprogesterone 17-acetate]
2. CCN(CC)C(=S)SSC(=S)N(CC)CC
3. CO[C@H]1C[C@H](O[C@H]2[C@H](C)[C@@H](O[C@@H]3O[C@H](C)C[C@H](N(C)C)[C@H]3OC(C)=O)[C@@H](C)C[C@@]3(CO3)C(=O)[C@H](C)[C@@H](OC(C)=O)[C@@H](C)[C@@H](C)OC(=O)[C@@H]2C)O[C@@H](C)[C@@H]1OC(C)=O
4. COc1ccccc1O
5. CCCNCC(O)COc1ccccc1C(=O)CCc1ccccc1 (centres unmarked)

Outgoing:
1: < 5%; 2: < 5%; 3: < 5%; 4: < 5%; 5: 78.2%

----------
target: USP7 (Homo sapiens); experiment: biochemical; parameters: Ub-AMC hydrolysis by recombinant USP7 (20 nM), 30 min pre-incubation, fluorescence read-out; details: read-out: % Inhibition at 50 μM
Structures can show the parent of a compound that is named as a salt.
measure: inhibition at 50 µM

# annotated cases, reported inhibition at 50 µM shown
CC(C)C(=O)c1c(C(C)C)nn2ccccc12    < 5%
CC(N/C(=N\C#N)Nc1ccncc1)C(C)(C)C (centres unmarked)    < 5%
Cc1cnc(C(=O)O)c[n+]1[O-]    < 5%
Nc1ccn([C@@H]2O[C@H](CO)[C@@H](O)[C@@H]2O)c(=O)n1    < 5%

Incoming: I am curious: what inhibition at 50 µM value has been reported for Cc1ccc(N(CC2=NCCN2)c2cccc(O)c2)cc1 [Phentolamine HCl] ?
Outgoing: < 5%

----------
Kindly state inhibition at 50 µM for each of the entries shown.
target: USP7 (Homo sapiens); assay: biochemical; set-up: Ub-AMC hydrolysis by recombinant USP7 (20 nM), 30 min pre-incubation, fluorescence read-out; conditions: read-out: % Inhibition at 50 μM

CC(C)NCC(O)COc1cccc2[nH]ccc12 (centres unmarked)    < 5%

// for each compound below, give its inhibition at 50 µM
1. OCc1cc(C(O)CNCCCCCCOCCCCc2ccccc2)ccc1O (centres unmarked)
2. CC(=O)SCC(Cc1ccccc1)C(=O)NCC(=O)OCc1ccccc1 (centres unmarked)
3. O=C(O)Cc1ccccc1Nc1c(Cl)cccc1Cl
4. CCCCCCCCCCCCCCCCOP(=O)([O-])OCC[N+](C)(C)C

Outgoing:
< 5%
< 5%
< 5%
6.5%

----------
molecular target: USP7 (Homo sapiens, UniProt Q93009); assay: biochemical; design: Ub-AMC hydrolysis by recombinant USP7 (20 nM), 30 min pre-incubation, fluorescence read-out; settings: read-out: % Inhibition at 50 μM
Where a name gives a salt, the structure may show the parent alone.
Kindly state inhibition at 50 µM for each of the entries shown.

# annotated cases, reported inhibition at 50 µM shown
C[C@]12CC[C@@H]3c4ccc(O)cc4C[C@@H](CCCCCCCCC[S+]([O-])CCCC(F)(F)C(F)(F)F)[C@H]3[C@@H]1CC[C@@H]2O (some centres unmarked) [Fulvestrant]    < 5%
CC1CCc2c(N3CCC(O)CC3)c(F)cc3c(=O)c(C(=O)O)cn1c23 (centres unmarked) [Nadifloxacin]    < 5%
CO[C@@]12[C@H](COC(N)=O)C3=C(C(=O)C(C)=C(N)C3=O)N1C[C@@H]1N[C@@H]12 [Mitomycin c]    31.5%

// for each compound below, give its inhibition at 50 µM
1. CC(CCc1ccc(O)cc1)NCCc1ccc(O)c(O)c1 (centres unmarked) [Dobutamine HCl]
2. CCN1CCCC1CNC(=O)c1cc(S(=O)(=O)CC)c(N)cc1OC (centres unmarked) [Amisulpride]
3. Nc1cc(-c2ccncc2)c[nH]c1=O [Amrinone]
4. C=C1C[C@@H]2[C@H](CC[C@]3(C)C(=O)CC[C@@H]23)[C@@]2(C)C=CC(=O)C=C12 [Exemestane]
5. O=P(O)(O)C(O)(Cn1ccnc1)P(=O)(O)O [Zoledronic acid]

Outgoing:
1. < 5%
2. < 5%
3. < 5%
4. < 5%
5. < 5%

----------
molecular target: USP7 (Homo sapiens); experiment: biochemical; parameters: Ub-AMC hydrolysis by recombinant USP7 (20 nM), 30 min pre-incubation, fluorescence read-out; conditions: read-out: % Inhibition at 50 μM
Structures can show the parent of a compound that is named as a salt.
measure: inhibition at 50 µM

# annotated cases, reported inhibition at 50 µM shown
CC(C)CN(C[C@@H](O)[C@H](Cc1ccccc1)NC(=O)O[C@H]1CCOC1)S(=O)(=O)c1ccc(N)cc1    < 5%
CC(C)OC(=O)CCC/C=C\C[C@@H]1[C@@H](CC[C@@H](O)CCc2ccccc2)[C@H](O)C[C@@H]1O    6.9%
CCCCNC(=O)NS(=O)(=O)c1ccc(C)cc1 [Tolbutamide]    < 5%
CC=CC(=O)N(CC)c1ccccc1C    < 5%
CC1(C)CC[C@]2(C(=O)O)CC[C@]3(C)C(=CC[C@@H]4[C@@]5(C)CC[C@H](O)[C@@](C)(CO)[C@@H]5CC[C@]43C)[C@@H]2C1    36.5%
C=C(C)[C@@H]1CC[C@]2(C(=O)O)CC[C@]3(C)[C@H](CC[C@@H]4[C@@]5(C)CC[C@H](O)C(C)(C)[C@@H]5CC[C@]43C)[C@@H]12    25.8%
COC1=C(OC)C(=O)C(CCCCCCCCCCO)=C(C)C1=O    < 5%

Alright, here's another compound for you.
Incoming: I am curious: what inhibition at 50 µM value has been reported for CCN(CC)CCOc1ccc(C(=C(Cl)c2ccccc2)c2ccccc2)cc1 [Clomiphene citrate] ?
Outgoing: < 5%
